Provenance of the data: patent US20200347144A1

Listed below: average fluorescence intensity values for each entry.
target: T1, human 4-1BB, full length, on transfected cells (human, UniProt Q07011 24-255)
T1 construct: whole, on cells; also called CHOK1-h4-1BB
T1 sequence (Q07011 24-255): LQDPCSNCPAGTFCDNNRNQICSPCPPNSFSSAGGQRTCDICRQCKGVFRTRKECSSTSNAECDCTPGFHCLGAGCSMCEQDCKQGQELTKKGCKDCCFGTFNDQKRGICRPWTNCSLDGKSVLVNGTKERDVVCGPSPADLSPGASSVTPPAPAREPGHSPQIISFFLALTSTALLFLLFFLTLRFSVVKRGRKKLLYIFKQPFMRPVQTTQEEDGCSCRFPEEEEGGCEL
assay: FACS, CHOK1-h4-1BB cells; Ab 0.08 ug/ml
Numbers only here, please. The scale is MFI.

| binder | measurement.type | quantity.unit | recorded.measurement |
| --- | --- | --- | --- |
| 15G10D4 (antibody, V domains shown) VH: QVQLVESGGGVVQPGRSLRLSCAASGFSFSSYAMHWVRQAPGKGLEWVAIIWYDGSNQYYADSVKGRFTISRDNSKNTLYLQMNSLRAEDTAVYYCARVKQWLVSYFDYWGQGTLVTVSS VL: EIVMTQSPATLSVSPGERATLSCRASQSVSSNLAWYQQKPGQVPRLLIYGASTRATGIPARFSGSGSGTEFSLIISSLQSEDFAVYYCQQYNNWPTFGGGTKVEIK | average fluorescence intensity | MFI | 322 |

IN: Dear colleague, I am looking for the recorded average fluorescence intensity of the following binder: 118F3A2 (antibody, V domains shown) VH: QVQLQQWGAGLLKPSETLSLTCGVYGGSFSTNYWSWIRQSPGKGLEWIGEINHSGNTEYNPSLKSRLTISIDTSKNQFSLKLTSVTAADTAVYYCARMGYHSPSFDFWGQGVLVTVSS VL: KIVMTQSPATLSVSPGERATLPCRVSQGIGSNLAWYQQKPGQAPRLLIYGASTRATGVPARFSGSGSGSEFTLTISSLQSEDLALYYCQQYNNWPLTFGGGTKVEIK
OUT: 346
